# Test system: NK-92 (IL-2 2.5 ng/mL)
# protocol: percent inhibition of viability; higher = more inhibition;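 note: normalised to DMSO-only wells as negative and benzethonium chloride as positive control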
# test.conditions: 72 h; 0.1 nM
readout.label: percent inhibition of viability
Numeric answer plus unit only.

QUERY: Requested read-out percent inhibition of viability, target or system NK-92 (IL-2 2.5 ng/mL), entry CNC(=O)c1ccc(-c2cnc3ncc(Cc4ccc5ncccc5c4)n3n2)cc1F [NVP-INC280] (max concentration tested 1000 nM)
RESULT: -4.47%

QUERY: # get_value(readout= percent inhibition of viability, system= NK-92 (IL-2 2.5 ng/mL)) for COc1cc2c(Oc3ccc4[nH]c(C)cc4c3F)ncnc2cc1OCCCN1CCCC1 [Cediranib] (max concentration tested 1000 nM)
RESULT: -10.6%

QUERY: Give the reported percent inhibition of viability for C[C@@H](Nc1cc(F)cc(F)c1)c1cc(C(=O)N(C)C)cc2c(=O)cc(N3CCOCC3)oc12 [AZD-8186] (max concentration tested 1000 nM) (system: NK-92 (IL-2 2.5 ng/mL)).
RESULT: -5.14%

QUERY: Could you share what percent inhibition of viability was measured for CC(=O)O[C@@]12CO[C@@H]1C[C@H](O)[C@@]1(C)C(=O)[C@H](O)C3=C(C)[C@@H](OC(=O)[C@H](O)[C@@H](NC(=O)OC(C)(C)C)c4ccccc4)C[C@@](O)([C@@H](OC(=O)c4ccccc4)[C@H]21)C3(C)C [Docetaxel] (max concentration tested 1000 nM) , tested on NK-92 (IL-2 2.5 ng/mL)?
RESULT: -6.6%

QUERY: Hi! What's the reported percent inhibition of viability for Oc1ccc2c(c1)CC[C@H](c1ccccc1)[C@@H]2c1ccc(OCCN2CCCC2)cc1 [Lasofoxifene] (max concentration tested 1000 nM) on NK-92 (IL-2 2.5 ng/mL)?
RESULT: 6.27%

----------
# System: NK-YS (IL-2 2.5 ng/mL)
# protocol: percent inhibition of viability; higher = more inhibition
# test.conditions: 72 h; 1000 nM
Binary call on percent inhibition of viability with cut-off 40%: strictly below means true (1), and equality or higher means false (0).

QUERY: In plain terms, does CC(C)c1cc(-c2n[nH]c(=O)n2-c2ccc3c(ccn3C)c2)c(O)cc1O [Ganetespib] (max concentration tested 1000 nM) come in under 40% for percent inhibition of viability?
RESULT: false (0)

QUERY: I wonder whether CC1(C)CNc2cc(NC(=O)c3cccnc3NCc3ccncc3)ccc21 [Motesanib] (max concentration tested 10000 nM) has percent inhibition of viability below 40%. Can you tell?
RESULT: true (1)

QUERY: Lab note: confirm whether the reported percent inhibition of viability for this compound is below 40%, equality not counting. compound: C[C@@H](Nc1cc(F)cc(F)c1)c1cc(C(=O)N(C)C)cc2c(=O)cc(N3CCOCC3)oc12 [AZD-8186] (max concentration tested 1000 nM)
RESULT: true (1)

QUERY: Lab log: compare recorded percent inhibition of viability with 40%; is it strictly lower for COc1cc2c(NC3CCN(C(C)C)CC3)nc(N3CCC(F)(F)CC3)nc2cc1OCCCN1CCCC1 [UNC0642] (max concentration tested 10000 nM) ?
RESULT: true (1)

QUERY: Does the reported percent inhibition of viability of Nc1ccn([C@@H]2O[C@H](CO)[C@@H](O)[C@@H]2O)c(=O)n1 [Cytarabine] (max concentration tested 10000 nM) stay below 40%?
RESULT: false (0)

QUERY: Lab log: compare recorded percent inhibition of viability with 40%; is it strictly lower for NC(=O)N1CCC(CC(=O)N2CCC([C@H]3c4ncc(Br)cc4CCc4cc(Cl)cc(Br)c43)CC2)CC1 [Lonafarnib] (max concentration tested 10000 nM) ?
RESULT: false (0)

QUERY: State whether 40% exceeds percent inhibition of viability recorded for Nc1ncn([C@H]2C[C@H](O)[C@@H](CO)O2)c(=O)n1 [Decitabine] (max concentration tested 10000 nM) .
RESULT: true (1)

QUERY: percent inhibition of viability strictly < 40% for this compound? Cn1cnc2c(F)c(Nc3ccc(Br)cc3F)c(C(=O)NOCCO)cc21 [Binimetinib] (max concentration tested 1000 nM)
RESULT: true (1)

QUERY: Is 40% strictly greater than the compound's reported percent inhibition of viability? compound: CS(=O)(=O)c1ccc(C(=O)Nc2ccc(Cl)c(-c3ccccn3)c2)c(Cl)c1 [Vismodegib] (max concentration tested 10000 nM)
RESULT: true (1)

QUERY: Here's an entry: CN1CCC(CNc2ccc3ncc(-c4cccc(OC(F)(F)F)c4)n3n2)CC1 [SGI-1776] (max concentration tested 10000 nM) . Is its percent inhibition of viability below 40%?
RESULT: true (1)

QUERY: Please check: percent inhibition of viability for C=C1C[C@@H]2[C@H](CC[C@]3(C)C(=O)CC[C@@H]23)[C@@]2(C)C=CC(=O)C=C12 [Exemestane] (max concentration tested 10000 nM) , strictly under 40% or not?
RESULT: true (1)

QUERY: In the record for Cc1sc2c(c1C)C(c1ccc(Cl)cc1)=N[C@@H](CC(=O)OC(C)(C)C)c1nnc(C)n1-2 [(+)JQ1] (max concentration tested 10000 nM) , is percent inhibition of viability less than 40%?
RESULT: false (0)

----------
For each record, write down the corresponding percent inhibition of viability.
# Test system: normal primary NK cells, pool 3 (3 donors) (IL-2 2.5 ng/mL)
# protocol: percent inhibition of viability; higher = more inhibition
# test.conditions: 72 h; 1 nM
// units = %; emit number, no label

QUERY: Query: percent inhibition of viability; subject: CNC(=O)c1cccc(-c2ccc3c(N4CCOC[C@@H]4C)nc(N4CCOC[C@@H]4C)nc3n2)c1 [AZD2014] (max concentration tested 10000 nM)
RESULT: 0.74

QUERY: Quick one: percent inhibition of viability for CC(=O)O[C@H]1C(=O)[C@@]2(C)[C@H]([C@H](OC(=O)c3ccccc3)[C@]3(O)C[C@H](OC(=O)[C@H](O)[C@@H](NC(=O)c4ccccc4)c4ccccc4)C(C)=C1C3(C)C)[C@]1(OC(C)=O)CO[C@@H]1C[C@@H]2O [Paclitaxel] (max concentration tested 1000 nM) ?
RESULT: -15.8

QUERY: What value of percent inhibition of viability has been recorded for this entry: COc1cc2nccc(Oc3ccc(NC(=O)Nc4cc(C)on4)c(Cl)c3)c2cc1OC [Tivozanib] (max concentration tested 10000 nM)
RESULT: 8.53

QUERY: Please report the recorded percent inhibition of viability for CC(C)(C)c1cc(NC(=O)Nc2ccc(-c3cn4c(n3)sc3cc(OCCN5CCOCC5)ccc34)cc2)no1 [Quizartinib] (max concentration tested 1000 nM) .
RESULT: 14.8

QUERY: For Nc1nc(N)c2nc(-c3cccc(O)c3)c(-c3cccc(O)c3)nc2n1 [TG100-115] (max concentration tested 10000 nM) , what is its reported percent inhibition of viability?
RESULT: -6.73

----------
# System: normal primary NK cells, pool 1 (3 donors) (IL-2 2.5 ng/mL)
# protocol: percent inhibition of viability; higher = more inhibition
# test.conditions: 72 h; 0.1 nM
Can you tell me percent inhibition of viability for the items I'm about to list?
Response body: numeric value in %, unit text excluded.

QUERY: Entry Nc1nc(Cl)nc2c1ncn2[C@H]1C[C@H](O)[C@@H](CO)O1 [Cladribine] (max concentration tested 1000 nM) , system normal primary NK cells, pool 1 (3 donors) (IL-2 2.5 ng/mL): what percent inhibition of viability was measured?
RESULT: -5.25

QUERY: Query for normal primary NK cells, pool 1 (3 donors) (IL-2 2.5 ng/mL): what percent inhibition of viability does the record show for COc1cc2/c(=N/c3ccc(Br)cc3F)nc[nH]c2cc1OCC1CCN(C)CC1 [Vandetanib] (max concentration tested 1000 nM) ?
RESULT: -5.01

QUERY: What measured percent inhibition of viability is associated with CC[C@H](NC(=O)[C@H](C)NC)C(=O)N1C[C@@H](O)C[C@H]1Cc1c(-c2[nH]c3cc(F)ccc3c2C[C@@H]2C[C@H](O)CN2C(=O)[C@H](CC)NC(=O)[C@H](C)NC)[nH]c2cc(F)ccc12 [Birinapant] (max concentration tested 1000 nM) on normal primary NK cells, pool 1 (3 donors) (IL-2 2.5 ng/mL)?
RESULT: -9.47

QUERY: Param readout = percent inhibition of viability; param system = normal primary NK cells, pool 1 (3 donors) (IL-2 2.5 ng/mL); param query = CC(C)c1cc(-c2n[nH]c(=O)n2-c2ccc3c(ccn3C)c2)c(O)cc1O [Ganetespib] (max concentration tested 1000 nM) ; response: value
RESULT: 1.74

QUERY: Give normal primary NK cells, pool 1 (3 donors) (IL-2 2.5 ng/mL) percent inhibition of viability for Cn1cnc2c(F)c(Nc3ccc(Br)cc3F)c(C(=O)NOCCO)cc21 [Binimetinib] (max concentration tested 1000 nM)
RESULT: -6.5

QUERY: Provide the documented percent inhibition of viability with normal primary NK cells, pool 1 (3 donors) (IL-2 2.5 ng/mL) as the system for Cc1ccc(F)c(NC(=O)Nc2ccc(-c3cccc4[nH]nc(N)c34)cc2)c1 [Linifanib] (max concentration tested 1000 nM)
RESULT: -6.2
